test system: MX-1 breast xenograft, nude mice, tumor weight T/C; experiment: NCI In Vivo Anticancer Drug Screen. Data for tumor model Human Mammary Carcinoma MX-1 Xenograft (intrarenal inoculation) in NU/NU Swiss (nude) mice; conditions: endpoint: mean tumor weight change; dose: 800.0 mg/kg/injection; schedule: Q04DX003 (sc); vehicle: saline with Tween-80; higher = larger tumour
Records with an inconclusive call do not appear.

{"compound": "CCCCOCN(COCCCC)C(C)Cc1ccccc1 (stereo unspecified)", "T/C": "66 % of control"}
{"compound": "ClC1=C(Cl)C(Cl)=C(Cl)C1=Cc1ccccc1", "T/C": "110 % of control"}
{"compound": "CC1=C(/C=C/C(C)=C/C=C/C(C)=C/CO)C(C)(C)CCC1", "T/C": "84 % of control"}
{"compound": "O=S(=O)(c1ccccc1)N1CN2CCN(C2)C1", "T/C": "65 % of control"}
{"compound": "Nc1ncnc2c1ncn2C1OC(CO)C(O)C1O (stereo unspecified)", "T/C": "217 % of control"}
{"compound": "COc1cc(C2c3cc4c(cc3C(O)C(CO)C2CO)OCO4)cc(OC)c1OC (stereo unspecified)", "T/C": "86 % of control"}
{"compound": "C[C@]12CC[C@@H]3c4ccc(OC(=O)Cc5ccc(N(CCCl)CCCl)cc5)cc4CC[C@H]3[C@@H]1CC[C@@H]2OC(=O)Cc1ccc(N(CCCl)CCCl)cc1", "T/C": "33 % of control"}
{"compound": "COC1=C(OC)C(=O)C(Sc2ccc3ccccc3c2)=CC1=O", "T/C": "61 % of control"}
{"compound": "Cc1ccc2c(c1)N=C(Nc1ccccc1)N=S2(C)=O (stereo unspecified)", "T/C": "60 % of control"}
{"compound": "CCN1/C(=C/C=C/C=C\\C=C\\c2sc3ccc4ccccc4c3[n+]2CC)Sc2ccc3ccccc3c21", "T/C": "93 % of control"}
{"compound": "Cc1ccc(N)c(N)c1", "T/C": "112 % of control"}
{"compound": "CC(=S)NC(O)C(=O)c1ccccc1 (stereo unspecified)", "T/C": "152 % of control"}
{"compound": "O=C(O)C1Cc2nc[nH]c2CN1CO (stereo unspecified)", "T/C": "99 % of control"}
{"compound": "CC(=O)Oc1ccc[nH]c1=O", "T/C": "114 % of control"}
{"compound": "O=C1NC(=O)C2C3C=CC(C12)C1C2C(=O)NC(=O)C2C31 (stereo unspecified)", "T/C": "57 % of control"}
{"compound": "Nc1nc2ccc(NCc3ccc(C(=O)NC(CCC(=O)O)C(=O)O)cc3)cc2c(=O)[nH]1 (stereo unspecified)", "T/C": "23 % of control"}
